Where do these numbers come from? They come from BindingDB's records for PubMed 10215672.

Molecular target: Corticotropin-releasing factor receptor 1 (Rattus norvegicus)
Sequence (P35353 whole entry): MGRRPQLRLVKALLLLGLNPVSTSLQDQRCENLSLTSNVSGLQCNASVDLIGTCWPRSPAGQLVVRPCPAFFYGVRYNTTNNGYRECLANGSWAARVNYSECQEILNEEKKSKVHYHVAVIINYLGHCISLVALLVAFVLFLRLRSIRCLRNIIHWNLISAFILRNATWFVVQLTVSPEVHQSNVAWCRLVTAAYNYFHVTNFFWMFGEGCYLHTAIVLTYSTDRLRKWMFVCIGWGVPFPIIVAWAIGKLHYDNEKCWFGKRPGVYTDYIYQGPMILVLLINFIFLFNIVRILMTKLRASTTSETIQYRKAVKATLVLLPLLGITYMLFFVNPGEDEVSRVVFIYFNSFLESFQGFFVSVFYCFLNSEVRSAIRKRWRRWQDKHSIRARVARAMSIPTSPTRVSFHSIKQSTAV
pKi: −log10 of the molar value.

| structureString | targetOrTestSystem | pKi |
| --- | --- | --- |
| CCCCN(CC)c1nc(C)nc2c1c(C)cn2-c1c(C)cc(C)cc1C | Corticotropin-releasing factor receptor 1 (Rattus norvegicus) | 8.74 |
